Test system: RXF-631 renal
EXPERIMENT DESCRIPTION: NCI tumour cell line growth inhibition, 48 h
Recorded TGI for the following molecules

Solved entries (count: 5):
Just so you know, measured TGI for COc1nc2nccc-2c2occn12 came out at > 100 µM

The reported TGI of the molecule O=C1C2=C(c3ccccc31)C(c1ccccc1)NC(=S)N2 (stereo unspecified) was > 100 µM

// field: TGI; key: CCCCCCCCCCCCCC(=O)CBr ; value = 33.7 µM

The reported value for Cc1cccc(C(C)C)c1NC(=O)C(=O)CC(=O)c1c(C)n([O-])c2ccccc2[n+]1=O in terms of TGI is 67.4 µM

For record COc1ccc(CC(C)N)cc1 (stereo unspecified) the listed TGI is > 100 µM

***
The reported value for Cc1cc(=O)oc2cc3c(cc12)Oc1ccccc1O3 in terms of TGI is > 100 µM

The measurements presented in this section are drawn from PubChem BioAssay (NCI).
